tgt: hCA-II (Homo sapiens, UniProt P00918)
Construct: gene CA2
protocol: CO2 hydratase assay (Wilbur-Anderson)
Assay type: biochemical
assay endpoint: Ki (µM)

Study these solved cases before continuing.
COc1ccc(SN2C(=O)c3ccccc3C2=O)cc1 [1c]	0.06
O=C1c2ccccc2C(=O)N1Sc1ccc([N+](=O)[O-])cc1 [1d]	0.152
O=C1c2ccccc2C(=O)N1Sc1nc2ccccc2[nH]1 [1i]	0.0546
O=C1c2ccccc2C(=O)N1SCc1ccccc1 [1g]	0.052

[1] O=C1c2ccccc2C(=O)N1Sc1ccc(Cl)cc1 [1e]
[2] O=C1c2ccccc2C(=O)N1Sc1ccccc1 [1a]
Request: I'm curious whether 1 or 2 has the smaller Ki number. Which is it? Use the label to indicate which entry you chose.
Response: 2
(2: 0.0515 µM, 1: 0.143 µM)
